# Assay Info: RP, Waters CORTECS T3, 100 × 2.1 mm, 2.7 µm, 0.15 mL/min, estimated dead time 1.5 min; A: water + 0.1% formic acid, pH 3; B: methanol + 0.1% formic acid, pH 3; gradient (min/%B) 0/0 1/0 6/5 30/100 35/100 35.1/0 40/0
# Experimental Setup: stereoisomer not certain
This section presents compounds with their documented LC retention time values.
Report only the number, with the unit min understood.

{"Compound": "Nc1ccn(C2OC(CO)C3OP(=O)([O-])OC32)c(=O)n1 (centres undefined) [CYTIDINE 2',3'-CYCLIC MONOPHOSPHATE]", "Unit Of Measurement": "min", "LC retention time": 1.78}
{"Compound": "Nc1cccc2ccccc12 [1-NAPHTHYLAMINE]", "Unit Of Measurement": "min", "LC retention time": 15.2}
{"Compound": "CC1NCCc2cc(O)c(O)cc21 (centres undefined) [1-METHYL-6,7-DIHYDROXY-1,2,3,4-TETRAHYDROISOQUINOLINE]", "Unit Of Measurement": "min", "LC retention time": 1.83}

Query: Answer with the recorded LC retention time for the compound listed here: CSCC1OC(n2cnc3c(N)ncnc32)C(O)C1O (centres undefined) [5'-METHYLTHIOADENOSINE]
Reply: 12.6

Query: Name the recorded LC retention time of the compound listed here: CN1CCC[C@H]1c1cccnc1 [(S)-NICOTINE]
Reply: 1.78

Query: Complete the entry with LC retention time for COC(=O)Cc1c[nH]c2ccccc12 [METHYL INDOLE-3-ACETATE]
Reply: 20.6

Query: Read the entry O=C(O)c1cc(=O)c2ccccc2[nH]1 [4-HYDROXY-2-QUINOLINECARBOXYLIC ACID] and write its reported LC retention time.
Reply: 13.6

Query: Please list LC retention time recorded for the compound NC(Cc1cc(I)c(Oc2cc(I)c(O)c(I)c2)c(I)c1)C(=O)O (centres undefined) [THYROXINE]
Reply: 23.9

Query: Query LC retention time for CCC(NC(=O)CCC(N)C(=O)O)C(=O)NCC(=O)O (centres undefined) [OPHTHALMIC ACID]
Reply: 1.87

* * *

# Assay Info: RP, Waters CORTECS T3, 100 × 2.1 mm, 2.7 µm, 0.25 mL/min, estimated dead time 0.88 min; A: water + 0.1% formic acid, pH 3; B: methanol + 0.1% formic acid, pH 3; gradient (min/%B) 0/0 1/0 6/5 30/100 35/100 35.1/0 40/0
# Experimental Setup: stereoisomer not certain
Metric: LC retention time

{"Molecule": "O=C(O)Cc1c[nH]c2ccc(O)cc12 [5-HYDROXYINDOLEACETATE]", "LC retention time": "10.8 min"}
{"Molecule": "CC1NC(=O)NC1CCCCCC(=O)O (stereo not given)", "LC retention time": "14.9 min"}
{"Molecule": "Nc1ccnc(=O)[nH]1", "LC retention time": "1.06 min"}

Query: State, in one line, measured LC retention time of Cc1cc2nc3c(=O)[nH]c(=O)nc-3n(CC(O)C(O)C(O)CO)c2cc1C (stereo not given)
Reply: 14 min

Query: Let me know recorded LC retention time for N[C@@H](Cc1ccccc1)C(=O)O , thanks.
Reply: 14.4 min

* * *

Each item that follows carries a reported LC retention time.
# Assay Info: RP, Waters CORTECS T3, 100 × 2.1 mm, 2.7 µm, 0.3 mL/min, estimated dead time 0.73 min; A: water + 0.1% formic acid, pH 3; B: methanol + 0.1% formic acid, pH 3; gradient (min/%B) 0/5 5/5 25/100 30/100 30.1/5 35/5
# Experimental Setup: stereoisomer not certain
Report only the number, with the unit min understood.

Solved entries:
{"Compound": "CC(=O)N[C@H](Cc1c[nH]c2ccccc12)C(=O)O", "LC retention time / min": 12.3}
{"Compound": "NC(Cc1ccc(Oc2cc(I)c(O)c(I)c2)c(I)c1)C(=O)O (stereo not given)", "LC retention time / min": 17.3}
{"Compound": "CC(=O)NCCc1c[nH]c2ccc(O)cc12", "LC retention time / min": 9.2}
{"Compound": "CC12CCC(=O)C=C1CCC1C2C(O)CC2(C)C1CCC2(O)C(=O)CO (stereo not given)", "LC retention time / min": 16.7}

Query: Please give measured LC retention time of the following entry: Nc1nc2nc[nH]c2c(=O)[nH]1
Reply: 2.45

* * *

# Assay Info: RP, Thermo Scientific Hypercarb, 150 × 2.1 mm, 5 µm, 0.1 mL/min, estimated dead time 3.3 min; A: water + 0.1% formic acid, pH 3; B: methanol + 0.1% formic acid, pH 3; gradient (min/%B) 0/5 5/5 20/100 35/100 35.1/5 45/5
# Experimental Setup: stereoisomer not certain
Metric: LC retention time (min)
Give the number; min is assumed, so skip it.

{"Compound": "Cn1cncc1CC(NC(=O)CCN)C(=O)O (centres undefined)", "Unit Of Measurement": "min", "LC retention time": 4.86}
{"Compound": "Cc1ncc(CO)c(CN)c1O", "Unit Of Measurement": "min", "LC retention time": 16.2}
{"Compound": "C[N+](C)(C)CCOP(=O)(O)O", "Unit Of Measurement": "min", "LC retention time": 4.81}
{"Compound": "NCCc1cnc[nH]1", "Unit Of Measurement": "min", "LC retention time": 4.61}
{"Compound": "CC(=O)NC(CCCCN)C(=O)O (centres undefined)", "Unit Of Measurement": "min", "LC retention time": 4.9}
{"Compound": "CC(C)(CO)C(O)C(=O)NCCC(=O)O (centres undefined)", "Unit Of Measurement": "min", "LC retention time": 21.3}
{"Compound": "NC(=O)c1cccnc1 [NICOTINAMIDE]", "Unit Of Measurement": "min", "LC retention time": 24.4}
{"Compound": "CCCCCCCCCCCC(=O)OC(CC(=O)[O-])C[N+](C)(C)C (centres undefined)", "Unit Of Measurement": "min", "LC retention time": 28.5}

Query: Given the compound NC1(C(=O)O)CC1 [1-AMINOCYCLOPROPANE-1-CARBOXYLATE] , write its reported LC retention time.
Reply: 4.48

Query: Fill in reported LC retention time for this entry: NC(N)=N[C@@H](CC(=O)O)C(=O)O [N-AMIDINO-L-ASPARTATE]
Reply: 12.7

Query: Please indicate LC retention time recorded for NCCc1c[nH]c2ccc(O)cc12
Reply: 14.4

Query: Find the measured LC retention time of N[C@@H](CS(=O)(=O)O)C(=O)O and report it.
Reply: 19.4

Query: Answer with the recorded LC retention time for the compound listed here: COc1cc(CCN)ccc1O
Reply: 20.5

Query: Return the recorded LC retention time value; entry: NCCC(=O)NC(Cc1cnc[nH]1)C(=O)O (centres undefined)
Reply: 4.86

* * *

LC retention time values for the compounds below.
# Assay Info: RP, Waters ACQUITY UPLC BEH C18, 100 × 2.1 mm, 1.7 µm, 0.1 mL/min, estimated dead time 2.2 min; A: water + 0.1% formic acid, pH 3; B: methanol + 0.1% formic acid, pH 3; gradient (min/%B) 0/5 5/5 25/95 25.1/100 35/100 35.1/5 45/5
# Experimental Setup: stereoisomer not certain
Where a name gives a salt, the structure may show the parent alone.
I only need the number, in min, no unit after it.

{"Compound": "N[C@@H](Cc1ccc(O)c(O)c1)C(=O)O [3,4-DIHYDROXY-L-PHENYLALANINE]", "LC retention time [min]": 2.7}
{"Compound": "Nc1ncnc2nc[nH]c12", "LC retention time [min]": 2.65}
{"Compound": "Nc1nc2c(ncn2C2OC(CO)C(O)C2O)c(=O)[nH]1 (configuration not stated)", "LC retention time [min]": 2.7}

Query: Assign LC retention time to the following record: CCC(NC(=O)CCC(N)C(=O)O)C(=O)NCC(=O)O (configuration not stated)
Reply: 2.7

Query: Kindly indicate its recorded LC retention time. Item: O=C(O)CCCCCCC(=O)O
Reply: 18

Query: Specify LC retention time for O=C(O)c1ccc2ccccc2c1[O-] [1-HYDROXY-2-NAPHTHOATE] and stop.
Reply: 25.1

Query: For the compound CC(=O)NCCc1c[nH]c2ccc(O)cc12 , give its reported LC retention time.
Reply: 13.7

Query: Name the recorded LC retention time of the item CSCCC(NC(C)=O)C(=O)O (racemic) in your answer.
Reply: 13.3

Query: Could you please provide reported LC retention time for O=c1ccn(C2OC(COP(=O)(O)O)C(O)C2O)c(=O)[nH]1 (configuration not stated) [URIDINE-5-MONOPHOSPHATE] ? Thanks!
Reply: 2.7

Query: Name the recorded LC retention time of the item Nc1ccn(C2CC(O)C(COP(=O)(O)O)O2)c(=O)n1 (configuration not stated) [2'-DEOXYCYTIDINE 5'-MONOPHOSPHATE] in your answer.
Reply: 2.67

Query: Please report LC retention time for the following compound: O=S(=O)(O)Oc1c[nH]c2ccccc12 [INDOXYL SULFATE]
Reply: 12.8

Query: Let me know recorded LC retention time for CCCCCCSCC(NC(=O)CCC(N)C(=O)O)C(=O)NCC(=O)O (configuration not stated) , thanks.
Reply: 21.1

Query: Give reported LC retention time value for O=C(O)CCCCC1SCC2NC(=O)NC21 (configuration not stated)
Reply: 15.5

Query: Dear colleague, please send me the reported LC retention time for Nc1nc2c(ncn2C2OC3COP(=O)(O)OC3C2O)c(=O)[nH]1 (configuration not stated) [GUANOSINE 3',5'-CYCLIC MONOPHOSPHATE] when you can.
Reply: 7.13

Query: # return recorded LC retention time for entry O=C(O)CCCCCC(=O)O [6-CARBOXYHEXANOATE]
Reply: 15.6

Query: Please report the measured LC retention time for CC(C)(CO)C(O)C(=O)NCCC(=O)O (configuration not stated)
Reply: 11.6

Query: State its LC retention time: Nc1nc2nccnc2c(=O)[nH]1
Reply: 4.74
